All figures here come from paper PMC8162404.

# assayed_system: S100B (Homo sapiens, UniProt P04271)
# Construct: made in house; host or cells: Escherichia coli BL21(DE3)
# Sequence (P04271 whole entry): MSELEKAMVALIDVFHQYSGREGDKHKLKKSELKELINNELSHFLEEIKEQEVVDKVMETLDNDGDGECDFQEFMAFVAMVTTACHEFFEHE
# experiment: Pull-down assay with immobilized protein and LSM libraries
# Format: binding
# condition_details: H12 library; 1:1 binding assumed; read-out: Surface mapping KD (apparent)
pKd: −log10 of the molar value.
Please note: label 1 applies when pKd is 4 or greater, and label 0 applies otherwise.

- CC[C@H](C)[C@@H](CC(=O)N[C@H]1CCC[C@@H]1C(=O)N[C@H]1CCC[C@@H]1C(N)=O)NC(=O)[C@H]1CCC[C@@H]1NC(=O)[C@H]1CCC[C@@H]1NC(=O)C[C@H](CCSC)NC(=O)[C@H]1CCC[C@@H]1NC(=O)[C@H]1CCC[C@@H]1N [H12 MI]: label 1
- NC(=O)[C@H]1CCC[C@@H]1NC(=O)[C@H]1CCC[C@@H]1NC(=O)C[C@H](CCC(=O)O)NC(=O)[C@H]1CCC[C@@H]1NC(=O)[C@H]1CCC[C@@H]1NC(=O)C[C@H](Cc1ccccc1)NC(=O)[C@H]1CCC[C@@H]1NC(=O)[C@H]1CCC[C@@H]1N [H12 FE]: label 0
- CSCC[C@@H](CC(=O)N[C@H]1CCC[C@@H]1C(=O)N[C@H]1CCC[C@@H]1C(=O)N[C@H](CC(=O)N[C@H]1CCC[C@@H]1C(=O)N[C@H]1CCC[C@@H]1C(N)=O)Cc1ccccc1)NC(=O)[C@H]1CCC[C@@H]1NC(=O)[C@H]1CCC[C@@H]1N [H12 MF]: label 1
- NC(=O)[C@H]1CCC[C@@H]1NC(=O)[C@H]1CCC[C@@H]1NC(=O)C[C@H](Cc1ccccc1)NC(=O)[C@H]1CCC[C@@H]1NC(=O)[C@H]1CCC[C@@H]1NC(=O)C[C@H](Cc1ccccc1)NC(=O)[C@H]1CCC[C@@H]1NC(=O)[C@H]1CCC[C@@H]1N [H12 FF]: label 1
- NCCCC[C@@H](CC(=O)N[C@H]1CCC[C@@H]1C(=O)N[C@H]1CCC[C@@H]1C(=O)N[C@@H](CC(=O)O)CC(=O)N[C@H]1CCC[C@@H]1C(=O)N[C@H]1CCC[C@@H]1C(N)=O)NC(=O)[C@H]1CCC[C@@H]1NC(=O)[C@H]1CCC[C@@H]1N [H12 KD]: label 0
- CSCC[C@@H](CC(=O)N[C@H]1CCC[C@@H]1C(=O)N[C@H]1CCC[C@@H]1C(=O)N[C@@H](CCCNC(=N)N)CC(=O)N[C@H]1CCC[C@@H]1C(=O)N[C@H]1CCC[C@@H]1C(N)=O)NC(=O)[C@H]1CCC[C@@H]1NC(=O)[C@H]1CCC[C@@H]1N [H12 MR]: label 1
- C[C@@H](O)[C@@H](CC(=O)N[C@H]1CCC[C@@H]1C(=O)N[C@H]1CCC[C@@H]1C(N)=O)NC(=O)[C@H]1CCC[C@@H]1NC(=O)[C@H]1CCC[C@@H]1NC(=O)C[C@H](Cc1ccc(O)cc1)NC(=O)[C@H]1CCC[C@@H]1NC(=O)[C@H]1CCC[C@@H]1N [H12 YT]: label 0
- CC[C@H](C)[C@@H](CC(=O)N[C@H]1CCC[C@@H]1C(=O)N[C@H]1CCC[C@@H]1C(=O)N[C@H](CC(=O)N[C@H]1CCC[C@@H]1C(=O)N[C@H]1CCC[C@@H]1C(N)=O)Cc1ccc(O)cc1)NC(=O)[C@H]1CCC[C@@H]1NC(=O)[C@H]1CCC[C@@H]1N [H12 IY]: label 1
